meta.source: patent US11891394B1

System: A375 (melanoma)
Protocol description: In vitro cytotoxic activity (MTT) assay, A375
Format: cell-based
Condition label: Homo sapiens, A-375, exposed 96 hours, read-out: IC50, 50% inhibition of cell proliferation
Outcome measure: pIC50
Recall that pIC50 is obtained by taking minus log10 of the concentration measured in molar.

// field: pIC50; key: O=C(O)c1cc2c([nH]1)c(Nc1cccc(Cl)c1)nc1ccncc12 [Compound 1] ; value = 5.60

---

Tested on: PC3 (prostate)
Protocol description: In vitro cytotoxic activity (MTT) assay, PC3
Type: cell-based
Condition label: Homo sapiens, exposed 96 hours, read-out: IC50, 50% inhibition of cell proliferation
Outcome measure: IC50 (nM)
Answer with a number only, understood to be in nM.

Let me check: O=C(O)c1cc2c([nH]1)c(Nc1cccc(Cl)c1)nc1ccncc12 , system PC3 (prostate), measured IC50 is 1800
